Target: T1, 6His-GST-PfDXRt-6His (1-deoxy-D-xylulose-5-phosphate reductoisomerase) (Plasmodium falciparum, UniProt Q8IKG4 73-488)
T1 sequence: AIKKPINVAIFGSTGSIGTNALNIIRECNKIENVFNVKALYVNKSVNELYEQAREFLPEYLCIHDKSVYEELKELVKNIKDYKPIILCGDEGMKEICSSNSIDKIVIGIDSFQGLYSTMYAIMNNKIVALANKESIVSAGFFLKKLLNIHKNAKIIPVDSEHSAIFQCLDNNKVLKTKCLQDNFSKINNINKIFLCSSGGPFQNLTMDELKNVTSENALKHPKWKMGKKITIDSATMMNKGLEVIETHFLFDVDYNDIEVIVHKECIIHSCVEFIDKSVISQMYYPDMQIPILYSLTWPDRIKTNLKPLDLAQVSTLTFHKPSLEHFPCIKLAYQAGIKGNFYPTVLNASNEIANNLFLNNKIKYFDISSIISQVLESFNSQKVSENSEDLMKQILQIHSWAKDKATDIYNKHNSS
Assay: bead-based flow cytometry saturation binding; protein on latex beads; Bmax 0.79
Conditions: protein: recombinant; tags: N-term 6xHis-GST, C-term 6xHis; label: 5' 6FAM; folded 90/5/37 C before use
PROPERTY: Kd (nM)
Express the result in nM but write the number alone.

Name the reported Kd value associated with the binder 6FAM-D10 (ssDNA) DNA: ATACCAGCTTATTCAATTCACTGCCACACCACGCCCTGCCATCCGCACATCCATCGTGAGATAGTAAGTGCAATCT 260
